# experimental target: T1, P2bH1
# T1 chain: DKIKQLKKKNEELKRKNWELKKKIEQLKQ
# test description: two-hybrid library CCNG1;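 further: natural log of median RNA to DNA barcode read ratio; higher means stronger binding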
reported property: interaction score

binder	reported property	reported measurement
DENKQLEKEIEELEREIWELEKKNEQLKQ [P11bH1]	interaction score	1.25
DEIKQLEKENEELERENWELEKEIEQLEQ [P1bH1]	interaction score	1.17
DKNKQLKKKIEELKRKIWELKKENEQLEQ [P12bH1]	interaction score	-1.01
DKIKQLKKKNEELKRKNWELKKKIEQLKQ [P2bH1]	interaction score	-0.432
DKNKQLKKENEELERKIWELKKKIEQLKQ [P10bH1]	interaction score	-1.33
